Give measured Curve Class for each item. Keep answers brief.
target of assay: CIB1 and αIIb interaction (CIB1-GST : F-αIIb peptide) (Homo sapiens, UniProt Q99828)
Construct: made in house; host or cells: BL-21 plus RIL cells (E. coli)
Sequence (Q99828 whole entry): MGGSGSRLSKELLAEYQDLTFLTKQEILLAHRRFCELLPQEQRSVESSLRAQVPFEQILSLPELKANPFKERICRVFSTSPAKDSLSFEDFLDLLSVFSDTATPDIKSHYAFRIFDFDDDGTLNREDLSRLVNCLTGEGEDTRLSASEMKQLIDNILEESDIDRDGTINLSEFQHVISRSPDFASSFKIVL
protocol text: FP assay, 1536-well qHTS format (primary and confirmatory screen)
Type: binding
run parameters: qHTS primary screen hits, Table S2; negative sign = inhibitory curve; several classes where COUNT > 1
One number for each entry.

Need Curve Class for each of these compounds.
1. COc1ccccc1Nc1cc2ccccc2c(O)n1
2. Cl.O=C(O)c1csc(-n2nc(-c3ccc(F)c(F)c3)c(Cc3ccccc3)c2O)n1
3. O=C(O)C(F)(F)F.O=C1Nc2ccccc2/C1=N/NC(=S)Nc1cccnc1

Resp:
[-2.2, -2.4, -1.4]
